target: UniProt:Q12809; experiment: Compounds were solubilised to 10 mM in DMSO and diluted in HBPS to […]. 6-Point concentration-response curves were generated using serial dilutions from the top test concentration. Electrophysiological recordings are made from a Chinese Hamster Ovary cell line stably expressing the full-length ion channel. Single cell ionic currents are measured in whole-cell configuration at room temperature. The internal solution for hERG is buffered to pH 7.3, and the external solution is buffered to pH 7.4. The test pulse was applied according to voltage protocol. Compounds were incubated for 2 min to allow stabilization of the parameters. Concentration-response curves were generated by cumulative addition of compound with concentrations low to high. In all cases, steady-state inhibition was achieved before the next concentration of compound was added. IC50 values or % of inhibition at top test concentration is obtained. The assay has been performed by Concept Life Sciences Ltd.; assay type: toxicity, cell-based, Cricetulus griseus, CHO; conditions: chinese hamster, CHO cells stably expressing full-length hERG, pH 7.3; top test concentration 30 uM
Sequence (Q12809 whole entry): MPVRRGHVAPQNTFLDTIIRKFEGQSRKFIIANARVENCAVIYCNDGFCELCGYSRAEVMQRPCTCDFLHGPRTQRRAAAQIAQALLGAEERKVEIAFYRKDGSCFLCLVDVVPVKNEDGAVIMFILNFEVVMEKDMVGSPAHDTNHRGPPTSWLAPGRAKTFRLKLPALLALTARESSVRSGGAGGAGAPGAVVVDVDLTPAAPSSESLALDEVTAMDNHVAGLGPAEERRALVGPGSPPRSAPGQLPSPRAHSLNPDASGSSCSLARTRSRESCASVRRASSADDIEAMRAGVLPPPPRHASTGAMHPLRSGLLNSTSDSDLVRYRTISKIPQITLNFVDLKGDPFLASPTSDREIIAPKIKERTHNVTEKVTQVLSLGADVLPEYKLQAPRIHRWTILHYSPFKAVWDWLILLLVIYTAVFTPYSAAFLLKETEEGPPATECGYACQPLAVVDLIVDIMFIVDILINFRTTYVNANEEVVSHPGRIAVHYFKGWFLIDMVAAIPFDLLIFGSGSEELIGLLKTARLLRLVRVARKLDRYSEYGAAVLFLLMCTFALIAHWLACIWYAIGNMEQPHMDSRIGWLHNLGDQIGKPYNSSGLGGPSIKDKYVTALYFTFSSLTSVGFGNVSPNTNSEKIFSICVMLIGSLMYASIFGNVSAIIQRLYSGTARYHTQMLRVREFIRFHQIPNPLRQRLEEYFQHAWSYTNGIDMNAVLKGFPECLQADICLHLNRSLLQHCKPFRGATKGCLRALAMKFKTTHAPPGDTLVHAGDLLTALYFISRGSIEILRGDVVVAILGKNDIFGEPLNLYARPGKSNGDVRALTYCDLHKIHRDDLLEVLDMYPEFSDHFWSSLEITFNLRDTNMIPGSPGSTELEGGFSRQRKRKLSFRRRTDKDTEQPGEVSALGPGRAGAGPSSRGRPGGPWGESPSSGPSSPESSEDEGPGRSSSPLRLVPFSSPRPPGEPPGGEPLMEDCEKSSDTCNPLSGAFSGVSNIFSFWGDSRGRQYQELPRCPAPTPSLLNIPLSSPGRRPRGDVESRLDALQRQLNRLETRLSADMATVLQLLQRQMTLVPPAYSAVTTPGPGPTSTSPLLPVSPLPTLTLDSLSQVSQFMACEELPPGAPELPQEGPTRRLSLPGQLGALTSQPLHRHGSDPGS
Exercise: state measured inhibition at 2 min for each of the molecules provided.
Give bare numbers, in %.

Worked examples, 4 molecules total:
CC(C)[C@H](Nc1ncnc2[nH]ccc12)c1ccc2c(c1)S(=O)(=O)CCC2: 39
CNC(=O)Cn1cc(-c2cc3c(N[C@@H](c4ccc5c(c4)S(=O)(=O)CCC5)C(C)C)ncnc3[nH]2)cn1: 23
C[C@H](C(=O)O)[C@@H](NC(=O)c1ncnc2[nH]ccc12)c1ccc(Br)cc1: 28
CNCc1cc(-c2cc3c(N[C@@H](c4ccc5c(c4)S(=O)(=O)CCC5)C(C)C)ncnc3[nH]2)co1: 26

Find the recorded inhibition at 2 min belonging to `COc1ccc([C@H](Cc2nnn[nH]2)NC(=O)c2ncnc3[nH]ccc23)cc1` and report it.
27
